Measured values drawn from patent US8895750B2 for this set.

# Target System: full-length human His-tagged BTK (Homo sapiens)
# Construct: 6 nM of full-length human His-tagged BTK (Life Technologies cat #PV3587); His; purchased Life Technologies PV3587
# Sequence (Q06187 whole entry): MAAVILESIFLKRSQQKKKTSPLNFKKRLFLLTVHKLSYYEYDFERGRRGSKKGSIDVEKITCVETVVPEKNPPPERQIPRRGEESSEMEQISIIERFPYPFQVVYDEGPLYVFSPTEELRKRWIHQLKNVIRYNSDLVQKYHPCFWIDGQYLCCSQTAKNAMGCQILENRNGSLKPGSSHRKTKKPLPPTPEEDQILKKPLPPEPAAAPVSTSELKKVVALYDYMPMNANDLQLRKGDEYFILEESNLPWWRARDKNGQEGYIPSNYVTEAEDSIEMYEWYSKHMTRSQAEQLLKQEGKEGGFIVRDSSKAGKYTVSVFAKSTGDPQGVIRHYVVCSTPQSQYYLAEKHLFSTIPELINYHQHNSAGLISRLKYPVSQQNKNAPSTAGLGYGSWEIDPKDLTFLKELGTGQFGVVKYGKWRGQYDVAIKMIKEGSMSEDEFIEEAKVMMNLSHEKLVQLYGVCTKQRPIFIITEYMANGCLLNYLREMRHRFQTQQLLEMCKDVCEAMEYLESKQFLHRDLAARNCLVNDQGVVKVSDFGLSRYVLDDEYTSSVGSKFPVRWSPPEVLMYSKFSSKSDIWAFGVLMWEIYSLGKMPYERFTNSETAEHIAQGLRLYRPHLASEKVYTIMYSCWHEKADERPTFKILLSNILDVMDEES
# Experiment Description: BTK HTRF assay (Cisbio KinEASE-TK)
# Format: biochemical
# Condition Description: 6 nM BTK, 15 min preincubation at 28° C., 1 uM TK substrate-biotin, 30 uM ATP
Readout Name: log10 IC50 (log10 of the value in nM)
For clarity, the numbers are log10 values of IC50 expressed in nM.

| Compound | log10 IC50 |
| --- | --- |
| CN(C)C/C=C/C(=O)N1CC2(C1)CN(c1nc(-c3ccc(Oc4ccccc4)cc3)c(C(N)=O)s1)C2 [Example 13] | 2.71 |
| CC#CC(=O)N1CCCC12CCN(c1nc(-c3ccc(Oc4ccccc4)cc3)c(C(N)=O)s1)CC2 [Example 24] | 2.18 |
| CC#CC(=O)N1[C@@H]2CC[C@H]1CN(c1nc(-c3ccc(Oc4ccccc4)cc3)c(C(N)=O)s1)C2 [Example 18] | -0.21 |

Lab note: each compound below needs its log10 IC50 filled in.
1. CN(C)C/C=C/C(=O)NC[C@@H]1CCCN1c1nc(-c2ccc(Oc3ccccc3)cc2)c(C(N)=O)s1 [Example 43]
2. CC#CC(=O)NC[C@@H]1CCCN1c1nc(-c2ccc(Oc3ccccc3)cc2)c(C(N)=O)s1 [Example 36]
3. C=CC(=O)N1CCN(c2nc(-c3cnn(Cc4ccccc4)c3)c(C(N)=O)s2)CC1 [Example 27]

Ans.
1.72
1.15
2.85

Lab note: each compound below needs its log10 IC50 filled in.
1. C=CC(=O)N1[C@@H]2CC[C@H]1CN(c1nc(-c3ccc(Oc4ccccc4)cc3)c(C(N)=O)s1)C2 [Example 19]
2. CN(C)C/C=C/C(=O)N1CC2(CCN(c3nc(-c4ccc(Oc5ccccc5)cc4)c(C(N)=O)s3)C2)C1 [Example 10]
3. CN(C)CCC(=O)N1CCN(c2nc(-c3ccc(Oc4ccccc4)cc3)c(C(N)=O)s2)CC1 [Example 26]
4. CC#CC(=O)N1CC2(C1)CN(c1nc(-c3ccc(Oc4ccccc4)cc3)c(C(N)=O)s1)C2 [Example 11]
5. CC(C)(O)C#CC(=O)N1CCN(c2nc(-c3ccc(Oc4ccccc4)cc3)c(C(N)=O)s2)CC1 [Example 37]
6. CC#CC(=O)N[C@@H]1CCCN(c2nc(-c3ccc(Oc4ccccc4)cc3)c(C(N)=O)s2)C1 [Example 4]
7. C=CC(=O)N1CCN(c2nc(-c3ccc(Oc4ccccc4)nc3)c(C(N)=O)s2)CC1 [Example 32]

Ans.
1: -0.32; 2: 2.04; 3: 1.84; 4: 0.94; 5: -0.19; 6: 1.98; 7: 1.23
